- TARGET OR SYSTEM: monkey GPC3 on HEK293T-monkey GPC3 cells (monkey)
- EXPERIMENT SUMMARY: FACS on HEK293T-monkey GPC3 cells
The following binders are shown together with reported pEC50 values.
// returns pEC50 (minus log10 of molar concentration), number only

## Task For hAb001H1L1a (antibody, human IgG1, V domains shown) VH: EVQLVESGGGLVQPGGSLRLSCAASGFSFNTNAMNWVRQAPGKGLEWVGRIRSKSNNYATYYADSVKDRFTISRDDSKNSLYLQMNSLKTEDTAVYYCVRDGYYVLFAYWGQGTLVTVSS VL: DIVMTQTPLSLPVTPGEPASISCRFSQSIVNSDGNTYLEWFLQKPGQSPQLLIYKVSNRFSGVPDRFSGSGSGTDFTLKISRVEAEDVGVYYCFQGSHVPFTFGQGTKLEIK , write its pEC50.
## Result 8.73

For the next question, use this binder.
## Task For hAb007LH1L1e (antibody, human IgG1, V domains shown) VH: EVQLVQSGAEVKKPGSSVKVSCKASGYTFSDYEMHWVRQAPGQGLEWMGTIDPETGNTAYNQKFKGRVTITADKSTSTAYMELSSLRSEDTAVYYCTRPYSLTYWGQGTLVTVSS VL: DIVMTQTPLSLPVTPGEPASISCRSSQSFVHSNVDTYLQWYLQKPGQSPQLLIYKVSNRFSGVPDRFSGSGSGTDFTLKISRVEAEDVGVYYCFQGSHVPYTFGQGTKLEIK , write its pEC50.
## Result 7.70

Value source: patent US20260116991A1
